tgt: HCMV protease (Assemblin) (Human cytomegalovirus)
Sequence (P16753 1-256): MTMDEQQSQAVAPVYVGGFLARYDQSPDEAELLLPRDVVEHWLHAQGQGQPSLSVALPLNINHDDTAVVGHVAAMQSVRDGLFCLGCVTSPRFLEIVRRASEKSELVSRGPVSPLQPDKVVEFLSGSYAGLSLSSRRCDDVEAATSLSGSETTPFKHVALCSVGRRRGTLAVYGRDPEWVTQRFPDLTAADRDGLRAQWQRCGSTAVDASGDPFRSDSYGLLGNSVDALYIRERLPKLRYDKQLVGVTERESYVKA
So basically: is IC50 under 20 µM? Then Yes. Not under? Then No.

Some entries whose results are on file:
test smiles: O=C(Nc1ccc(I)cc1C(=O)C(F)(F)F)c1ccco1
category label: Yes
//
test smiles: O=C(CCc1ccccc1)Nc1ccccc1C(=O)C(F)(F)F
category label: No
//
test smiles: O=C(Nc1ccccc1C(=O)C(F)(F)F)OCc1ccccc1
category label: Yes
//
test smiles: O=C(Nc1ccccc1C(=O)C(F)(F)F)c1ccco1
category label: Yes

query: Strictly below 20 µM: is that where IC50 of "O=C(CCc1ccccc1)Nc1cc(F)ccc1C(=O)C(F)(F)F" sits?
result: Yes

====

tgt: UniProt P16753
observable: pIC50
# log scale: pIC50 equals minus log10 of the concentration in mol/L

As a guide, the following entries are already answered.
molecule: O=C(Nc1ccccc1C(=O)C(F)(F)F)c1cnccn1 [Example 5]
observable: pIC50
assay result: 5.43
--
molecule: O=C(Nc1ccccc1C(=O)C(F)(F)F)c1cc2ccccc2s1 [Example 9]
observable: pIC50
assay result: 4.59
--
molecule: COc1ccccc1C(=O)Nc1ccccc1C(=O)C(F)(F)C(=O)NC(C)C [Example 17]
observable: pIC50
assay result: 5.07

// moving on: another record for pIC50
Query O=C(Nc1ccccc1C(=O)C(F)(F)F)c1cc2ccccc2o1 [Example 16] yields pIC50 of 4.44

====

// melting point lookup, one value per entry

As a guide, the following entries are already answered.
molecule: O=C(Nc1ccccc1C(=O)C(F)(F)F)c1cc2ccccc2o1 [Example 16]
assay result: 130 to 132 °C
//
molecule: O=C(Nc1ccccc1C(=O)C(F)(F)F)c1cc2ccccc2[nH]1 [Example 15]
assay result: 188 to 193 °C
//
molecule: O=C(COc1ccc(Cl)cc1)Nc1ccccc1C(=O)C(F)(F)F [Example 14]
assay result: 134 to 135 °C

// moving on: another record for melting point
Query COc1ccccc1C(=O)Nc1ccccc1C(=O)C(F)(F)C(=O)NC(C)C [Example 17] yields melting point of 131.5 to 132 °C
